# Test system: TO-N3-2 (biotin conjugate)
# Experiment notes: pull-down binding Z-score (relative to library population); higher = stronger binding
# Test conditions: RNA library: Library-2
Quantity: pull-down binding Z-score
Hey, just send me the number, nothing else.

Example sequences with recorded pull-down binding Z-score:
Could you share which pull-down binding Z-score value was measured for ACACUGGGCUGCCCCCACUGCCCAGUGC [hsa-mir-4277] ?
0.413

Could you share which pull-down binding Z-score value was measured for GGGCAAGCUGUCUCAAAUGUCC [IAV_invivo_PA_3_Motif_10+IAV_invivo_PA_3_Motif_10] ?
0.0264

Could you share which pull-down binding Z-score value was measured for UGAACCACAAAUCA [SHAPE_invitro_SARS-CoV-2_Motif_451] ?
-0.906

Next:
Could you share which pull-down binding Z-score value was measured for UCCCCUCAGGA [hsa-mir-5703] ?
-0.802

Could you share which pull-down binding Z-score value was measured for AUCUGAAUGAUCUCAGC [hsa-mir-626] ?
0.364

Could you share which pull-down binding Z-score value was measured for UAUGACCAGGCCAUAGUAAACAUCAUA [hsa-mir-4744] ?
-0.124

###

Catalogue of pull-down binding Z-score readings, one per entry.
# Test system: TO-3-N3-2 (biotin conjugate)
# Experiment notes: pull-down binding Z-score (relative to library population); higher = stronger binding
# Test conditions: RNA library: Library-2
Hey, just send me the number, nothing else.

Please provide the recorded pull-down binding Z-score for GCGCUUCAGCGUUCUUCGGAAUGUCGCGC , tested on TO-3-N3-2 (biotin conjugate).
-0.453

Please provide the recorded pull-down binding Z-score for GUGUAAAAGUGCCUUUUACAU , tested on TO-3-N3-2 (biotin conjugate).
-0.646

Next:
Please provide the recorded pull-down binding Z-score for CGGCGGGCACGUAGUGUAGCUAGUCAAUCCAUCAUUGCCUACACUAUGUCACUUGGUG [SHAPE_invitro_SARS-CoV-2_Motif_429] , tested on TO-3-N3-2 (biotin conjugate).
0.313

Please provide the recorded pull-down binding Z-score for UGACAUGACUCUUGAGGAAAUGUCA [IAV_invivo_NS1_NEP_8_Motif_7+IAV_invivo_NS1_NEP_8_Motif_7] , tested on TO-3-N3-2 (biotin conjugate).
-0.773

Please provide the recorded pull-down binding Z-score for UGCUGGAGAAGUGUUU [hsa-mir-557] , tested on TO-3-N3-2 (biotin conjugate).
0.0975

Please provide the recorded pull-down binding Z-score for GAGGGAUGAGUGCACUUCACCUGC [hsa-mir-4435-1_4435-2] , tested on TO-3-N3-2 (biotin conjugate).
0.0965

Please provide the recorded pull-down binding Z-score for GGUUUCGGGCUGCC [hsa-mir-661] , tested on TO-3-N3-2 (biotin conjugate).
0.067

Please provide the recorded pull-down binding Z-score for UUUGCGUUACUUUCAAUCGUAAA [hsa-mir-548x] , tested on TO-3-N3-2 (biotin conjugate).
-0.253

###

# Test system: TO-3-N3 (biotin conjugate)
# Experiment notes: pull-down binding Z-score (relative to library population); higher = stronger binding
# Test conditions: RNA library: Library-2
// label = criterion met if pull-down binding Z-score is not less than -0.4, otherwise criterion not met

Answer whether pull-down binding Z-score of UUUCUGUUGUCUGAAAGAAAAGAAC [hsa-mir-523] is greater than or equal to -0.4.
criterion met

Next:
Answer whether pull-down binding Z-score of UGGUGUUAGAAGGUCCUUUUAUGUCUAUGCUAAUGGAGGUAAAGGCUUUUGCAAACUA [SHAPE_invitro_SARS-CoV-2_Motif_149] is greater than or equal to -0.4.
criterion not met

Answer whether pull-down binding Z-score of UUGUUGUUAUUACU [hsa-mir-378d-1] is greater than or equal to -0.4.
criterion met

Answer whether pull-down binding Z-score of AUAAACCACCCAUUAGUUUUCCAUUGUGUGCUAAUGGACAAGUUUUUGGUUUAU is greater than or equal to -0.4.
criterion not met

###

# Tested on: TO-N3 (biotin conjugate)
# Experiment notes: pull-down binding Z-score (relative to library population); higher = stronger binding
# Test conditions: RNA library: Library-2
Catalogue of pull-down binding Z-score readings, one per entry.
Hey, just send me the number, nothing else.

Example sequences with recorded pull-down binding Z-score:
Please provide the recorded pull-down binding Z-score for UGGCGACACUCGCGCCAGCUCCCGGGACGGCUGGGCUCGGGCUGGUCGCCGA [hsa-mir-7845] , tested on TO-N3 (biotin conjugate).
0.341

Please provide the recorded pull-down binding Z-score for AAGCUCUUGCAGUAGGUUU [hsa-mir-1206] , tested on TO-N3 (biotin conjugate).
-0.46

Please provide the recorded pull-down binding Z-score for AUUAUGUUUUGGACAUAGAAACAUAAC [hsa-mir-5688] , tested on TO-N3 (biotin conjugate).
-0.981

Please provide the recorded pull-down binding Z-score for UCAAGACUAUUCAACCAAGGGUUGAAAAGAAAAAGCUUGA [SHAPE_invivo_SARS-CoV-2_Motif_22] , tested on TO-N3 (biotin conjugate).
-0.551

Please provide the recorded pull-down binding Z-score for UACUAACAGCACUGGAGGGUGUA [hsa-mir-142] , tested on TO-N3 (biotin conjugate).
0.114

Please provide the recorded pull-down binding Z-score for UUUUGCAGUUGAAAGUAAUGGCAAAG [hsa-mir-548ao] , tested on TO-N3 (biotin conjugate).
-0.0635

Please provide the recorded pull-down binding Z-score for GGUACUUUAUAAUUUCAAAAAGUCCC [hsa-mir-361] , tested on TO-N3 (biotin conjugate).
-1.51

Please provide the recorded pull-down binding Z-score for CAGCUGUUGUCUCCAGAGCAUUCCAGCUG [hsa-mir-191] , tested on TO-N3 (biotin conjugate).
0.648

Next:
Please provide the recorded pull-down binding Z-score for UCCUCCAUGCUUGGAAAAUGCAGGGAGGA [hsa-mir-764] , tested on TO-N3 (biotin conjugate).
-0.987

Please provide the recorded pull-down binding Z-score for UCCCAUUUCCACAUGGAGAGUGGAGCCCAGA [hsa-mir-3123] , tested on TO-N3 (biotin conjugate).
0.639

Please provide the recorded pull-down binding Z-score for GACGACUACUAGCGUGCCUUUGUAAGCACAAGCUGAUGAGUACGAACUUAUGUACUCAUUCGUU [SHAPE_invivo_SARS-CoV-2_Multi_65_ComplexLevel_1] , tested on TO-N3 (biotin conjugate).
0.417

Please provide the recorded pull-down binding Z-score for CUUUCUGUUGUCUGAAAGAAAGGAAAG [hsa-mir-519a-1_519a-2] , tested on TO-N3 (biotin conjugate).
-0.572

Please provide the recorded pull-down binding Z-score for UGUUUAACUCCUCUCCACGUGAACA [hsa-mir-499a] , tested on TO-N3 (biotin conjugate).
0.731

Please provide the recorded pull-down binding Z-score for UUGACCAAUCAUCUUAUUGACUAGA [hsa-mir-6502] , tested on TO-N3 (biotin conjugate).
-0.471

Please provide the recorded pull-down binding Z-score for CAGGUGCCUCAAAGGGCAUCCCACCUG [hsa-mir-3151] , tested on TO-N3 (biotin conjugate).
-0.673

Please provide the recorded pull-down binding Z-score for CGGGAACCUGCCUCCCG [hsa-mir-596] , tested on TO-N3 (biotin conjugate).
0.0562

Please provide the recorded pull-down binding Z-score for UGGCCGCAAAUUGCACAAUUUGCCCCCA [SHAPE_invitro_SARS-CoV-2_Motif_532] , tested on TO-N3 (biotin conjugate).
-0.363

Please provide the recorded pull-down binding Z-score for GAGAGUGCUUUCUGAAUGCAAUGC [hsa-mir-501] , tested on TO-N3 (biotin conjugate).
-0.14

Please provide the recorded pull-down binding Z-score for GUCGCUACAGGAUUGGCAACUAUAAAUUAAACACAGACCAUUCCAGUAGCAGUGAC [SHAPE_invitro_SARS-CoV-2_Motif_494] , tested on TO-N3 (biotin conjugate).
0.0101

Please provide the recorded pull-down binding Z-score for ACCAGUUAACUGGU [SHAPE_invitro_SARS-CoV-2_Motif_121] , tested on TO-N3 (biotin conjugate).
-1.1

Please provide the recorded pull-down binding Z-score for CUUGGCACCUUUGGCCUUAG [hsa-mir-4540] , tested on TO-N3 (biotin conjugate).
0.112

###

Catalogue of pull-down binding Z-score readings, one per entry.
# Test system: TO-N3-2 (biotin conjugate)
# Experiment notes: pull-down binding Z-score (relative to library population); higher = stronger binding
# Test conditions: RNA library: Library-2
Hey, just send me the number, nothing else.

Could you share which pull-down binding Z-score value was measured for CAUGUGUUGGUAGCGAUAAUGUUACUGACUUUAAUG ?
-1.01

Could you share which pull-down binding Z-score value was measured for UGGAGGAGUCUGGUGGCCUGUUCUCUU [hsa-mir-6754] ?
0.707

###

# Tested on: TO-N3-2 (biotin conjugate)
# Experiment notes: pull-down binding Z-score (relative to library population); higher = stronger binding
# Test conditions: RNA library: Library-2
Quantity: pull-down binding Z-score
Hey, just send me the number, nothing else.

Example sequences with recorded pull-down binding Z-score:
Could you share which pull-down binding Z-score value was measured for GGGCCAUGUCUGUGAGGGCCCA [hsa-mir-4294] ?
0.936

Could you share which pull-down binding Z-score value was measured for UCUUGCCGAAUACCAUAAUGAAUCUGGCUUGA [SHAPE_invivo_SARS-CoV-2_Motif_27] ?
0.0939

Could you share which pull-down binding Z-score value was measured for ACAGCAGUCUUACUGAAGGUUUCCUGGAAACCACGCACAUGCUGU [hsa-mir-744] ?
-0.5

Could you share which pull-down binding Z-score value was measured for GCGCUGCCAGAAACUGGCGGCGC [mismatch-UG] ?
-0.856

Next:
Could you share which pull-down binding Z-score value was measured for AACAAAUGUGUCAAUUUCAACUUCAAUGGUUUAACAGGCACAGGUGUU ?
-0.968

Could you share which pull-down binding Z-score value was measured for AAAGGACUGGUAUGAUUUUGUAGAAAACCCAGAUAUAUUACGCGUAUACGCCAACUUAGGUGAACGUGUACGCCAAGCUUU ?
0.0415

Could you share which pull-down binding Z-score value was measured for GAUUUCUAUGAGAACAUC [hsa-mir-3675] ?
-0.95

Could you share which pull-down binding Z-score value was measured for UUAACCUAAAAUGAGAAGGCUAA [hsa-mir-633] ?
-0.637

Could you share which pull-down binding Z-score value was measured for UUUGCUACUGAAAGUAAUGGCAAA [hsa-mir-548z] ?
-0.632

Could you share which pull-down binding Z-score value was measured for CCUCAAUCACUUGCCAGAGAGAUUGG [hsa-mir-1200] ?
-0.136
